Every entry's value here was drawn from patent EP4667483A1.

Test system: T1, human transferrin receptor (hTfR) (human, UniProt P02786 89-760)
T1 construct: Recombinant hTfR; at pH 7.4 captured on the chip by an anti-His tag antibody, at pH 6.0 immobilized on an NTA chip, so it carries a His tag; also called human TfR; TfR1
T1 sequence (P02786 89-760 limits assumed): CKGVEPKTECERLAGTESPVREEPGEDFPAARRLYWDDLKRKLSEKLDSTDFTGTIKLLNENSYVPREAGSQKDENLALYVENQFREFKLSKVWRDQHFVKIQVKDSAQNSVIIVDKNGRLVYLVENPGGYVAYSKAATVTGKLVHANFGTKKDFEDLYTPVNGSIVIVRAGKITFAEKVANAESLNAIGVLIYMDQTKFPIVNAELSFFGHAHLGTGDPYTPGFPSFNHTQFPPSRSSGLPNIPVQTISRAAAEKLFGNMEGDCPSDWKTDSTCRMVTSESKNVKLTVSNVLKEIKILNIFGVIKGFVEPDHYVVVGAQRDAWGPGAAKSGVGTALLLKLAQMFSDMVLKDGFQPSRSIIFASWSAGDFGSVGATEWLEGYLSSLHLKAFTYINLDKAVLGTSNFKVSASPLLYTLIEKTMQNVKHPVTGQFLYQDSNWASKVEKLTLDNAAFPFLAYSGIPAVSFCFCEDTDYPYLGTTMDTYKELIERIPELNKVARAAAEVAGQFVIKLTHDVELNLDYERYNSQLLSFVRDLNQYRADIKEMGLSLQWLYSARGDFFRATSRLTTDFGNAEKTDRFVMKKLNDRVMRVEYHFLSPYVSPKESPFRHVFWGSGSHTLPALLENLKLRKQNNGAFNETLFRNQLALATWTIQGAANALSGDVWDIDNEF
Test details: SPR, koff at pH 6.0 over koff at pH 7.4
Bridge positions count the residues as written; N and C are the ends. Square brackets hold non-standard residues; d marks the D form. Ends that are not written are not given here. NMePhe(4-COOH) = CN[C@@H](Cc1ccc(C(=O)O)cc1)C(=O)O; NMePhe(3-Cl) = CN[C@@H](Cc1cccc(Cl)c1)C(=O)O; 3Pal(6-NH2) = Nc1ccc(C[C@H](N)C(=O)O)cn1; NMeW = CN[C@@H](Cc1c[nH]c2ccccc12)C(=O)O; NMeY = CN[C@@H](Cc1ccc(O)cc1)C(=O)O; Nva(3-Et) = CCC(CC)[C@H](N)C(=O)O; NMeF = CN[C@@H](Cc1ccccc1)C(=O)O

[
  {
    "Binder": "{CH2CO}-AV[NMePhe(3-Cl)]V[NMeW]NYY[Nva(3-Et)]SKRY[NMeY]C (thioether N-15; not fully specified (C-terminus)) [894_0612]",
    "dependency koff pH6.0/7.4": 6.71
  },
  {
    "Binder": "AVXVXNYYIIKRXXC (not fully specified; as printed: A-V-MeF3C-V-W1Me-N-Y-Y-I-I-K-R-4Py-MeY-C; linker PEG4c; cyclic (ClAc-Ala1 thioether to Cys15)) [894_0607]",
    "dependency koff pH6.0/7.4": 7.49
  },
  {
    "Binder": "{CH2CO}-AV[NMeF]V[NMeW]N[3Pal(6-NH2)]YI[code s]KRY[NMeY]C (thioether N-15; also: linker PEG4c attached, place not given here, Position 10 is printed as lower-case 's') [894_0619]",
    "dependency koff pH6.0/7.4": 12.2
  },
  {
    "Binder": "{CH2CO}-AV[NMePhe(3-Cl)]V[NMeW]N[3Pal(6-NH2)]YI[code s]KRY[NMeY]C (thioether N-15; also: linker PEG4c attached, place not given here, Position 10 is printed as lower-case 's') [894_0620]",
    "dependency koff pH6.0/7.4": 12.5
  },
  {
    "Binder": "AVXVXNYYXIKRYXC (as printed: A-V-Me3Py-V-MeW-N-Y-Y-Eva-I-K-R-Y-MeY-C; linker PEG4c; cyclic (ClAc-Ala1 thioether to Cys15)) [894_0616]",
    "dependency koff pH6.0/7.4": 3.41
  },
  {
    "Binder": "AVXVWNXYIIKRYXC (not fully specified; as printed: A-V-MeF-V-W-N-3Py6NH2-Y-I-I-K-R-Y-MeY-C; linker PEG4c; cyclic (ClAc-Ala1 thioether to Cys15)) [894_0601]",
    "dependency koff pH6.0/7.4": 8.89
  },
  {
    "Binder": "AVXVWNYYIIRRXXC (as printed: A-V-MeF-V-W-N-Y-Y-I-I-R-R-F3COO(PEG8Me)-MeY-C; linker G-KN3; cyclic (ClAc-Ala1 thioether to Cys15)) [894_3436]",
    "dependency koff pH6.0/7.4": 5.75
  },
  {
    "Binder": "AVXVXNYYIIKRYXC (as printed: A-V-Me3Py-V-MeW-N-Y-Y-I-I-K-R-Y-MeY-C; linker PEG4c; cyclic (ClAc-Ala1 thioether to Cys15)) [894_0615]",
    "dependency koff pH6.0/7.4": 2.87
  },
  {
    "Binder": "AVXVWNYYIIXRYXC (as printed: A-V-MeF-V-W-N-Y-Y-I-I-E(PEG8Me)-R-Y-MeY-C; linker G-KN3; cyclic (ClAc-Ala1 thioether to Cys15)) [894_3435]",
    "dependency koff pH6.0/7.4": 6.89
  },
  {
    "Binder": "AVXVXNXYIIKRYXC (not fully specified; as printed: A-V-MeF-V-MeW-N-3Py6NH2-Y-I-I-K-R-Y-MeY-C; linker PEG4c; cyclic (ClAc-Ala1 thioether to Cys15)) [894_0602]",
    "dependency koff pH6.0/7.4": 6.5
  },
  {
    "Binder": "{CH2CO}-AV[NMeF]VWN[3Pal(6-NH2)]YIIKRY[NMePhe(4-COOH)]C (thioether N-15; not fully specified (C-terminus)) [894_0603]",
    "dependency koff pH6.0/7.4": 11.3
  },
  {
    "Binder": "{CH2CO}-AV[NMeF]V[NMeW]NYY[Nva(3-Et)]IKRY[NMePhe(4-COOH)]C (thioether N-15; not fully specified (C-terminus)) [894_0593]",
    "dependency koff pH6.0/7.4": 3.72
  },
  {
    "Binder": "{CH2CO}-AV[NMeF]V[NMeW]NYY[Nva(3-Et)]SKRY[NMeY]C (thioether N-15; not fully specified (C-terminus)) [894_0611]",
    "dependency koff pH6.0/7.4": 4.83
  },
  {
    "Binder": "{CH2CO}-AV[NMeF]V[NMeW]N[3Pal(6-NH2)]YIIKRY[NMePhe(4-COOH)]C (thioether N-15; not fully specified (C-terminus)) [894_0604]",
    "dependency koff pH6.0/7.4": 7.83
  }
]
